assay: Substrate specificities of KAZ mutants (ZZ-fused, crude enzyme), furimazine; assay type: biochemical; conditions: 1 μg substrate, integrated for 60 seconds
Listed molecules paired with reported Relative Luminescence Activity Furimazine Int.
Answer with a bare number; do not write a unit.

Known Relative Luminescence Activity Furimazine Int. results, listed for orientation:
KAZ-V44I-Y138I: KAZ mutant with two amino acid substitutions V44I and Y138I, SEQ ID NO: 12 (protein) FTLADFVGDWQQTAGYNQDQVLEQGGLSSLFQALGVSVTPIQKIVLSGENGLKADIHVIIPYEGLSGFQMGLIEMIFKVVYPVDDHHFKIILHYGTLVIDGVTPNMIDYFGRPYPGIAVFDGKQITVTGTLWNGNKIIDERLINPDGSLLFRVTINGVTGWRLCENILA
5.4
KAZ-A54I: KAZ with single amino acid substitution A54I, SEQ ID NO: 6 (protein) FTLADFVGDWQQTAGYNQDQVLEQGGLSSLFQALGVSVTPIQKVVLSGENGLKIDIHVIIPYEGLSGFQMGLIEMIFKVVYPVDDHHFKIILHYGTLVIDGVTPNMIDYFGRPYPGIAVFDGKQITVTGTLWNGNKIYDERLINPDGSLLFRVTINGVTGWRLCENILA
2.1

I'd like to know its Relative Luminescence Activity Furimazine Int.. The molecule in question is KAZ-V44I: KAZ with single amino acid substitution V44I, SEQ ID NO: 4 (protein) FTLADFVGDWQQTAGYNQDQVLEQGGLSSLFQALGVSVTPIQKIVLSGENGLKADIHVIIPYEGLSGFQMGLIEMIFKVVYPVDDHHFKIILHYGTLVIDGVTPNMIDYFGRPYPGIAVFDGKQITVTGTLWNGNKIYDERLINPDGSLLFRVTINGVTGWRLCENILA
0.9
